Assay: folding stability dG unfold from trypsin proteolysis; higher = more stable
measurementType: folding stability dG unfold (kcal/mol)

[[record]]
querysequence = "SAGGSAGGSAGVEINIFMPSWEQAKHRAKSIARELRERGLPPNAEIKIKIHPIDPEDMGPSAGGSAGGSAGG [r17_180_TrROS]"
unitslabel = "kcal/mol"
readoutvalue = -0.0827

[[record]]
querysequence = "SAGGSAGGSDPPVVTVEVKEETLPNGEKIYIVTVTREDGTTKTLKFPASTSEEEIKEKVEKLLSAGGSAGGS [r12_1019_JUSTAS]"
unitslabel = "kcal/mol"
readoutvalue = 3.64

[[record]]
querysequence = "SGSPDELEVVESEETVNIPPEELEAKYGIKVPENSTVVIKTKTLKPPSGNDIVEPEIKIYDPVTNEWIELSA [r9_349_JUSTAS]"
unitslabel = "kcal/mol"
readoutvalue = -0.537

[[record]]
querysequence = "SYLPESVPYDLVELTVVAKGKSPEYLEKKIKEAFKDVKIEPFYDPEKKLVTFKIVFPNKETAEKFKELVSSA [r9_764_TrMRF]"
unitslabel = "kcal/mol"
readoutvalue = 1.93

[[record]]
querysequence = "SAGGSAGGSMEVTVTPLPDGSLLVTVTVTTSSTPVPVELRFPPSASLEEIRAAAEARAAEVAASAGGSAGGS [r12_69_JUSTAS]"
unitslabel = "kcal/mol"
readoutvalue = 0.883

[[record]]
querysequence = "SAGGSAGGSAMTITVEVPPSVPAEEAAERVAERLRAEFPVPDIRVTVETTPDGTVTVTITEASAGGSAGGSA [r18_1_JUSTAS]"
unitslabel = "kcal/mol"
readoutvalue = -0.291

[[record]]
querysequence = "SAGGSAGGKPIWEFELEFPDGYKIRITYWPGYVRVEIHNPDGRQLEVNVPGKSPEDALDALLDASAGGSAGG [r6_459_TrROS]"
unitslabel = "kcal/mol"
readoutvalue = 3.32


====

Assay: folding stability dG unfold (combined trypsin and chymotrypsin); higher = more stable
Category key, based on recorded folding stability dG unfold: class 0 (below 0.9 kcal/mol), class 1 (0.9 kcal/mol to below 3 kcal/mol), class 2 (3 kcal/mol or more)

[[record]]
querysequence = "SAGGSAGGSAWKKFMLEFPDGRPFMIEIDPDEPGRVKIYPPGNGKEEEIPPDDLKDLKITASAGGSAGGSAG [r3_451_TrROS]"
group = "class 0"

[[record]]
querysequence = "SAGGSAGGSAGGMEIEKNENGELIIKFKSKEEAEKAIEELKKKGYKVELNEDGYLIIKPSAGGSAGGSAGGS [r10_1027_TrROS_Hall]"
group = "class 2"

[[record]]
querysequence = "SAGGSAGGSAGGNPVYRTRAEILETVPVGEDETVWLPGTAAPVSPSTTVLLARVYSVPADSAGGSAGGSAGG [r11_793_TrMRF]"
group = "class 0"

[[record]]
querysequence = "SAGGPGYNINIDVKIYPDPNDNHFVIEVKITIMPMEPDPDDGGWKQRSRTVPQEILLPPGESAEDIFSAGGS [r8_323_TrROS]"
group = "class 1"

[[record]]
querysequence = "SYRPITIQMPSPEDLKKLEEAFEDDGFENVNIHRDPPGWHTITITQKGPPEQLQDRIREAFDENGFQIQPSA [r9_1003_TrROS]"
group = "class 0"

[[record]]
querysequence = "SAGGSAGGSAGMIKIEETVVLPDGTVVRKEKEIEPPNGKTTTLKTETVPVLSPGSESLLLSAGGSAGGSAGG [r11_919_JUSTAS]"
group = "class 0"

[[record]]
querysequence = "SAGGDPGAEKIGTKTYPVGDKELTIETYRLPDPDELKVVVTDPTDGKTTPITVSLSEPPNIPVAELLSAGGS [r16_768_JUSTAS]"
group = "class 0"

[[record]]
querysequence = "SAGGMKEIAKALGIKPEDVKIEEEEIEVNGKKVKKIKITVKDKKTKKEYKIELTIVYDKNGKIVKIELSAGG [r13_358_TrROS_Hall]"
group = "class 2"

[[record]]
querysequence = "SAGGIDLDDLPPGDIFIFIKIKMEPVKVDDPDGKEYNRMEIEIFIFRFDPPNGKIQFEPIPMEFYIRSAGGS [r8_486_TrROS]"
group = "class 2"

[[record]]
querysequence = "SAGGGLPASDPDVTATTETFTVTYTEATPEGNPVTTTTTTTVTTYTAPDGAVTTTTTTTSTTVTPASTSAGG [r13_51_JUSTAS]"
group = "class 1"

[[record]]
querysequence = "SAGGSASSIPPGKILSKKEFEVELPDGKKLKITILEVPGPTLALTEEPGEKKPKTYKVEELKKLLESAGGSA [r15_329_JUSTAS]"
group = "class 0"

[[record]]
querysequence = "SAGGPKVYLTDIVTTLPDGTVVMIGEIELPDGTPLIAITTIYKDGTVKVFIYDPNGKLIAEIEIKPKPSAGG [r13_903_TrMRF]"
group = "class 1"

[[record]]
querysequence = "SAGGKTKVIVVKVKPEMTVEEIAKKLAEELKKKGKKVKVEVKVIEKLPNGELYVKVTVKDGKLTIEPSAGGS [r8_7_TrROS_Hall]"
group = "class 1"

[[record]]
querysequence = "SAGGGVTITASPDGTVTITIGGKPITVPVHPGATLEFRVEPTPDGRPAVTITWTSPDGTPYTFTFTGSAGGS [r16_231_TrMRF]"
group = "class 2"

[[record]]
querysequence = "SAGGMTVERVPGSGVYTLTFPDGSTETLEIPPEENAVVYAKEGAGTVTVKLAPPDDPEALAAAAALSSAGGS [r16_623_JUSTAS]"
group = "class 0"

[[record]]
querysequence = "SAGGSAGGSAGGSIEPITIILPDKIIRIYRFEDGTIVEIIDPETGKPTFISLEDAKKLIGSAGGSAGGSAGG [r7_372_TrMRF]"
group = "class 1"

[[record]]
querysequence = "SAGGSAGGSAKHRVDDIQPQRHKNPDGEKPVRVRFPDNGQEERIPADNLDDIDVSDGMEVEPSAGGSAGGSA [r18_288_TrROS]"
group = "class 0"

[[record]]
querysequence = "SAGGSAGGSAGGGITIKGPGSVTVTVPASDVASISVDPATGTVTVEIPATGTTLTVPPASAGGSAGGSAGGS [r10_200_JUSTAS]"
group = "class 0"

[[record]]
querysequence = "SAGGSAGGSADGNTPVEVTITLTDPKTGAVTTVPVVLPTSVSVEEVAAELAAKFGLTTVTVTSAGGSAGGSA [r18_58_JUSTAS]"
group = "class 0"

[[record]]
querysequence = "SAGGSAGGSIWIPPNHSVEEFAKEIQDKGNAEVKRDEPGWYKIKSKNNKPKKRIRFQANPEQFSAGGSAGGS [r20_236_TrROS]"
group = "class 0"

[[record]]
querysequence = "SALEEEVKKRAEEIAQEIKEKFPNVKEKVVEIELPLPNGTKLKATVTISRSINEKGIEYKIKIEVSEGLSAG [r14_788_JUSTAS]"
group = "class 2"

[[record]]
querysequence = "SAGGMPPGQVVRLRLERVSPTWVRLYFPETGEVLYFPVRPDATLAEAEAIARELAERLGYPVEIETVSAGGS [r16_446_TrMRF]"
group = "class 2"

[[record]]
querysequence = "SAGVTLKLPFVLPGGLGVDEIEVRSLPGGRVEARLRLKGDPRYYVVARFYVLPGGRLVITDVRVRREDESAG [r14_705_TrMRF]"
group = "class 2"

[[record]]
querysequence = "SAGKIKKIEVKEVTNENGEKYKKITIEVEKEGKKVEIIVNKNGEKFIKVEKNGKTITLPLDEALELLKKSAG [r5_157_TrROS_Hall]"
group = "class 1"

[[record]]
querysequence = "SAGGSAGGSAGMTKTITVGDKKVNVTITPLPTPTTKVTITFPDGSTKTVTLPAGTPITLGSAGGSAGGSAGG [r11_525_JUSTAS]"
group = "class 0"

[[record]]
querysequence = "SAGGSAGGSAGMEPEIYTITTTDSNGNTSSYTFTSTEEVNAFLNDPSFQSSAVSFTVSPTSAGGSAGGSAGG [r11_1047_JUSTAS]"
group = "class 1"


====

Assay: folding stability dG unfold (combined trypsin and chymotrypsin); higher = more stable
Measured folding stability dG unfold accompanies every entry in the list below.
measurementType: folding stability dG unfold (kcal/mol)

[[record]]
querysequence = "SAGGSAGGSAGLLPIEELLKKNPEPVTFMVKDNDTLYRIEITPKDGKWTIEIEPLPGMKPSAGGSAGGSAGG [r11_549_TrROS]"
unitslabel = "kcal/mol"
limitqualifier = "="
readoutvalue = 1.2

[[record]]
querysequence = "SAGGSAGGSAGSLPEKLKEAFPDLGVTVTSVDPSGTVTVEVDGPEEVKEKVEKAVAEILKSAGGSAGGSAGG [r11_418_JUSTAS]"
unitslabel = "kcal/mol"
limitqualifier = "<"
readoutvalue = -1

[[record]]
querysequence = "SAKIEIIKKDGEYYLRITLENGKKKTIKLKGIKKIEIKNGKIYIYNKKTGKKIILKNAKIKKIEIEKVPSAG [r14_83_TrROS_Hall]"
unitslabel = "kcal/mol"
limitqualifier = "="
readoutvalue = 3.87

[[record]]
querysequence = "SAGGSEKLLEEIKEKEFNIPPFIDPKTGKEYPGAKVKVKEAKKIKDTKKIKLIVETPEGKHEFILGSAGGSA [r2_314_TrMRF]"
unitslabel = "kcal/mol"
limitqualifier = "<"
readoutvalue = -1

[[record]]
querysequence = "SAGGSAGGSALLPLPEDAVLEVPFPGTEEEAEVFAAELAKAFPVGEITLEKEPTSYRLVVRSAGGSAGGSAG [r3_73_TrMRF]"
unitslabel = "kcal/mol"
limitqualifier = "<"
readoutvalue = -1

[[record]]
querysequence = "SAPNYVLVIKIKSTNTPYYIPVPEDVEIVVKKNKNGEITAVVKVKDPETGEYFVITFSGDAKIDKIEPVPSA [r9_467_TrMRF]"
unitslabel = "kcal/mol"
limitqualifier = "="
readoutvalue = 2.63

[[record]]
querysequence = "SAGGSASNIKTEEKEYPDGKVVVKYSSDPNITYVYYYPPGGLELVETLDSNGNVISKKLVPKGKLISAGGSA [r15_419_JUSTAS]"
unitslabel = "kcal/mol"
limitqualifier = "="
readoutvalue = 0.832

[[record]]
querysequence = "SAGGSAGGSEEVVRTETSTSTTPDGKRVKTTTTTLPTPTTVTTTTVYAPGGEVLETTTTTTAASAGGSAGGS [r12_727_JUSTAS]"
unitslabel = "kcal/mol"
limitqualifier = "<"
readoutvalue = -1

[[record]]
querysequence = "SAGGSAGGSAMKYYVTITFTDPNNGNTTTEIKEVTTEEEVEKVVEELAPSSYASVKVSIKPKSAGGSAGGSA [r18_258_JUSTAS]"
unitslabel = "kcal/mol"
limitqualifier = "="
readoutvalue = 0.892

[[record]]
querysequence = "SAGGSAMIVTEDPNGVLTTTENGKVTTTTVTPVPRPDPFSDKTFTEYVVTTTTTPVAPSPITPNTLSAGGSA [r15_515_JUSTAS]"
unitslabel = "kcal/mol"
limitqualifier = "="
readoutvalue = 0.823

[[record]]
querysequence = "SAGGSAGGSKKVKIEINVVVPPGMTPEKAKQMAEEFAREIAEAYGGKDVKVKVRIMYIPPDQFSAGGSAGGS [r12_522_TrROS]"
unitslabel = "kcal/mol"
limitqualifier = "="
readoutvalue = 2.08

[[record]]
querysequence = "SAGGSAGGMLSPEVLEDPEKVIEFLKKMIPGLKIVVPPDAPPEVVEAAAKLAEETGIPVEIVVGSAGGSAGG [r6_129_TrMRF]"
unitslabel = "kcal/mol"
limitqualifier = "="
readoutvalue = 0.555

[[record]]
querysequence = "SAGGSAGGMKLTLRIEAPREEVERLAKEFEAQGIKVTVKPRPDGRVELTLEIDLPDTDKSLFDPSAGGSAGG [r6_8_TrMRF]"
unitslabel = "kcal/mol"
limitqualifier = "="
readoutvalue = 2.55

[[record]]
querysequence = "SAGFGVYKHKYKYDNDDGNPKPKKPEEEPVEPAPPIEPLPIPIRLPDGQPFTFTILSISPKNNNISLNGSAG [r5_735_TrROS]"
unitslabel = "kcal/mol"
limitqualifier = "="
readoutvalue = 0.452

